Just for reference, patent US20070178531A1 is where these values come from.

Target: T1, Human Id1: Histidine (human, UniProt P41134 1-155, limits assumed)
T1 construct: Fusion protein made in E. coli from vector pGW07; also called h-Id1: his; not shown: His tag
T1 sequence (looked up): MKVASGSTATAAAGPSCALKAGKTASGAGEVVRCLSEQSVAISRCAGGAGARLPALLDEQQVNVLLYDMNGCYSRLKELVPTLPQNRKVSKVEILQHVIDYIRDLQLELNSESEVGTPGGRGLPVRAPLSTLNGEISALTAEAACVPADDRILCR
Assay: ELISA, Ab 0.000 µg/ml (blank)
Assign A450 to each entry below.
The reply should read as a number followed by its unit.

// rabbit monoclonal anti-mouse/human Id3, clone #BCH-4/#17-3 (antibody, V domains shown, Rabbit IgG from a rabbit hybridoma; also called m/h Id3 MoAb 17-3; BCH-3/#17-3) VH: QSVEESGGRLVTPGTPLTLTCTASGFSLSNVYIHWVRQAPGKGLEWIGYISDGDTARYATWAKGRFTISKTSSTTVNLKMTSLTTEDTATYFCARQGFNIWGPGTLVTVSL VL: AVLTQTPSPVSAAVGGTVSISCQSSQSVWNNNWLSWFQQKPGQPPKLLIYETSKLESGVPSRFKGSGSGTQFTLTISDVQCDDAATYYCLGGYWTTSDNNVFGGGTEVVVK : A450 value = 0.045 A450

// rabbit monoclonal anti-mouse/human Id3, clone #BCH-4/#6-1 (antibody, V domains shown, Rabbit IgG from a rabbit hybridoma; also called m/h Id3 MoAb 6-1) VH: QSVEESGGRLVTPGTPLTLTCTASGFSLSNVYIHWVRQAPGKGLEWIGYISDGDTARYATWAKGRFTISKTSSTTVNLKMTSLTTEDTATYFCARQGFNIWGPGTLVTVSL VL: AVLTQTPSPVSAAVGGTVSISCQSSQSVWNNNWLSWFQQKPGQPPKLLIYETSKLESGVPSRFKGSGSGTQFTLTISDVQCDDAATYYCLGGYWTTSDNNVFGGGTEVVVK : A450 value = 0.045 A450

// rabbit monoclonal anti-mouse/human Id3, clone #BCH-4/#42-1 (antibody, V domains shown, Rabbit IgG from a rabbit hybridoma; also called m/h Id3 MoAb 42-1) VH: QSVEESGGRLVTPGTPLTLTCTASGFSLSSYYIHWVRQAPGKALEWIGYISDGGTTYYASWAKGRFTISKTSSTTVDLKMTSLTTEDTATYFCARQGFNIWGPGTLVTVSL VL: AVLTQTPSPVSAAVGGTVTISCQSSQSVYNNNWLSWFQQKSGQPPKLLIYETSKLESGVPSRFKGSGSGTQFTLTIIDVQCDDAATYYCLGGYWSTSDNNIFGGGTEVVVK : A450 value = 0.043 A450
